Source: patent US20250320312A1

assayed_target: T1, Peptide 8: Biotin-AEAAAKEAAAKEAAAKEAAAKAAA-Tyr-acid (N-terminal biotin; C-terminal acid)
T1 construct: control peptide without PC
T1 peptide: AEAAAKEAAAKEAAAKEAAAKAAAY
experimental_details: scFv ELISA
experimental_readout: OD450 (OD450)
Form entry: value (OD450) — number only.

Worked set:
Incoming: Tell us which OD450 value is on record for PcOxP_DB02_D09 (scFv, V domains shown, scFv in periplasmic extract) VH: EVQLLESGGGLVQPGGSLRLSCAASGFTFSTFYMEWVRQAPGKGLEWVAASRNKANDYTTEYADSVKGRFTISRDNSKNTLYLQMNSLRAEDTAVYYCARDYYGSSYWYFDVWGQGTLVTVSS VL: DIQMTQSPSSLSASVGDRVTITCTASESLYSSKHKVHYLAWYQQKPGKAPKLLIYGASNRYGGVPSRFSGSGSGTDFTLTISSLQPEDFATYYCAQFYEYPLTFGGGTKVEIK
Outgoing: 0.04

Incoming: Tell us which OD450 value is on record for PcOxP_DB02_B12 (scFv, V domains shown, scFv in periplasmic extract) VH: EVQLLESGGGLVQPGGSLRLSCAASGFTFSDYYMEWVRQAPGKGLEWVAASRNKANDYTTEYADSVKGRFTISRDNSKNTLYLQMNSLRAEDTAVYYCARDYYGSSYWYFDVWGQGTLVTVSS VL: DIQMTQSPSSLSASVGDRVTITCTASESLYSSKHKVHYLAWYQQKPGKAPKLLIYGQSNRYIGVPSRFSGSGSGTDFTLTISSLQPEDFATYYCAQFYSYPLTFGGGTKVEIK
Outgoing: 0.04

Shift focus to the following entry.
Incoming: Tell us which OD450 value is on record for PcOxP_DB03_E09 (scFv, V domains shown, scFv in periplasmic extract) VH: EVQLLESGGGLVQPGGSLRLSCAASGFTASDFYMEWVRQAPGKGLEWVAASRNKANDQTTEYADSVKGRFTISRDNSKNTLYLQMNSLRAEDTAVYYCARDYYGSSYWYFDSWGQGTLVTVSS VL: DIQMTQSPSSLSASVGDRVTITCTASESLYSSKHKVHYLAWYQQKPGKAPKLLIYGASNRQSGVPSRFSGSGSGTDFTLTISSLQPEDFATYYCAQFYSYPLTFGGGTKVEIK
Outgoing: 0.05
